testName: qHTS for Inhibitors of TGF-b; also: nearly all actives have a fitted effect of over 65% in size
conditionsUsed: HepG2 CAGA-GFP TGF-b/SMAD3 reporter, GFP fluorescence, 18 h, TGF-beta stimulated, 500 pg/mL final; series mostly up to 46.1 µM
Out of some 410,000 compounds screened, about 5,000 (1.2%) were called active. About 13% were inconclusive and are not listed. Calls follow the shape of the dose curve; as a rule, active = well fitted inhibition curve with a large enough effect; inconclusive = small, poorly fitted or top-dose-only effect; inactive = no such curve, though single readings can be large or run the other way. The list comes from a sample in which actives are over-represented; it also holds close analogues and randomly drawn compounds.
Form entry, call: pick from Yes = active, No = inactive

Please share the test call associated with CCn1cc(CN2CCCC(C(=O)c3cccc(C(F)(F)F)c3)C2)cn1 (stereo not given) .
No

Hi team, can someone confirm the assay call for `ClCCN(CCCl)c1ccc(C=Nc2ccc(/C=C/c3ccnc4ccccc34)cc2)cc1` ?
No

Which result was noted for this compound in the test: COc1ccc(C2C=C(C)Oc3c2c(=O)oc2ccccc32)cc1OC (stereo not given)
No

What outcome does the record of this test show for `c1ccc(N2Cc3ccccc3-n3nncc3C2)nc1` ?
No

Please share the test call associated with `CN(C(=O)c1cccc(NC(=O)Cc2cccc([N+](=O)[O-])c2)c1)C1CCCCC1` .
Yes

Any idea what this test logged for `CC(C)(C)c1ccc(CN2C(=O)CN=C(c3ccccc3)c3ccccc32)cc1` ?
Yes

I'd appreciate the recorded outcome for `O=C(NCC1=C(c2ccc3ccccc3c2)C[C@@H]2CC[C@H]1N2Cc1ccco1)c1cccs1` from this test.
No

Status in this test for `O=C1CC(=O)N(Cc2ccccc2)C(=O)N1CCCCCCN1C(=O)CC(=O)N(Cc2ccccc2)C1=O` ?
No

# lookup: test call for CN(C)CCN(CC1CCCN(Cc2ccccc2F)C1)C(=O)Cc1ccc(F)c(F)c1 (stereo not given)
No

In this assay, the call recorded for `C[C@H]1CN([C@@H](C)CO)C(=O)CCCn2nncc2CO[C@H]1CN(C)C(=O)Oc1cccc2ccccc12` was what?
No

====

testName: qHTS for Inhibitors of TGF-b; also: nearly all actives have a fitted effect of over 65% in size
conditionsUsed: HepG2 CAGA-GFP TGF-b/SMAD3 reporter, GFP fluorescence, 18 h, TGF-beta stimulated, 500 pg/mL final; series mostly up to 46.1 µM
Among all 410,000 compounds or so, about 5,000 (1.2%) were called active. Roughly 13% stayed inconclusive and do not appear here. Calls come from the whole dose curve; as a rule, active = well fitted inhibition curve with a large enough effect; inconclusive = small, poorly fitted or top-dose-only effect; inactive = no such curve, though single readings can be large or run the other way. The sample as a whole holds a higher share of actives than the screen did.
Tick one outcome: Yes (active), No (inactive)

Could you kindly confirm the outcome this assay logged for `O=c1c2ccccc2nc(/C=C/c2ccc(F)cc2)n1-c1ccccc1O` ?
Yes

Which outcome was entered for the compound `Cn1c(O)c(C=NCCCC(=O)O)c(=O)n(C)c1=O` in this test?
No

# lookup: test call for `COc1ccc(NC(=O)N2Cc3ccccc3-n3nncc3C2)cc1`
No

Please state the recorded outcome for this compound: `CCCCC(=O)N/N=C/c1c(O)n(CC)c(=S)n(CC)c1=O`
Yes

Please indicate how the test categorized `COc1ccc2c(c1O)-c1cccc3c1[C@@H](C2)N(C)CC3` .
No

Record request — test call for COc1cc(C2c3cc4c(cc3C(O)C3COC(=O)C23)OCO4)cc(OC)c1OC (stereo not drawn)
No

For COc1c(O)ccc2c1-c1c3c(cc4c1C(C2)N(C)CC4)OCO3 (stereo not drawn) , what call appears in the results of this test?
No

Dear colleague, could you share the recorded outcome for C[C@]12CC[C@H](O)C[C@H]1CC[C@@H]1C2CC[C@]2(C)[C@@H](C3=CC(=O)OC3)[C@@H](O)C[C@]12O (stereo partly drawn) when you have a moment?
Yes

====

testName: qHTS for Inhibitors of TGF-b; also: nearly all actives have a fitted effect of over 65% in size
conditionsUsed: HepG2 CAGA-GFP TGF-b/SMAD3 reporter, GFP fluorescence, 18 h, TGF-beta stimulated, 500 pg/mL final; series mostly up to 46.1 µM
In all, about 410,000 compounds went through this assay and about 5,000 (1.2%) were called active. About 13% were inconclusive and are not listed. Calls follow the shape of the dose curve; as a rule, active = well fitted inhibition curve with a large enough effect; inconclusive = small, poorly fitted or top-dose-only effect; inactive = no such curve, though single readings can be large or run the other way. What follows is part of a selection rich in actives, with near analogues and random picks from the rest.
Just give me one of these, please: 1.0 (active), 0.0 (inactive)

Hey, what did the test say about `CN1CCN(/N=C/c2c[nH]c3ccccc23)CC1` ?
0.0

Tell me the recorded outcome of this test for `Cc1ccc(OC(=O)N(C)C[C@@H]2OCc3cnnn3CCCC(=O)N([C@H](C)CO)C[C@@H]2C)cc1` .
0.0

I would be grateful if you could indicate the recorded call for `O=c1c2ccccc2nc(CBr)n1-c1ccc(Cl)cc1` .
0.0

Given COC1C(O)C(C)OC(OC2CCC3(C=O)C(CCC4C3CCC3(C)C(C5=CC(=O)OC5)CCC43O)C2)C1O (stereo unspecified) , state the outcome it received in this test.
1.0

Outcome logged for `O=C(Oc1ccc2c(c1)CCC2)N1CCOCC1` in this assay:
0.0

Which outcome did this test record for the compound `CCOC(=O)CNC(=O)N1Cc2cc(N3CCCCC3)ccc2-n2nncc2C1` ?
0.0

// param item: `COC(=O)C1=C(c2cc3ccccc3s2)C[C@@H]2CC[C@H]1N2C(=O)NCCO` ; yields the recorded call
0.0

Query: recorded result category for CC1CCCCN1Cc1cccnc1 (stereo unspecified) in this test
0.0

Which outcome was assigned to CCC1(CC(C)c2ccccc2)C(=O)NC(=O)NC1=O (stereo unspecified) in this test?
0.0

Please state the recorded outcome for this compound: `COc1ccc2cc1Oc1ccc(cc1)C[C@H]1c3cc(c(OC)cc3CCN1C)Oc1c(O)c(OC)cc3c1[C@H](C2)N(C)CC3`
1.0

Returns: the outcome recorded for CSCCC(c1nnnn1C(C)(C)C)N1CCC(n2c(=O)[nH]c3ccccc32)CC1 (stereo unspecified) in this assay.
0.0

Cited source: PubChem BioAssay AID588855
